B1: Gamma-crystallin S, residues 96 to 176; numbered along this chain, P22914 (parent)
chain: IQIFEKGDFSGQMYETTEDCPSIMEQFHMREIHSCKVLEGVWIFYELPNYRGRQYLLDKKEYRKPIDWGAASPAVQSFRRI

variants of: B1; experiment: abundance fitness (aPCA) (normalised: wild type 0, dead -1); higher = more abundant; growth selection in yeast, the domain comes from the species named; conditions: Homo sapiens
Mark NOT MET for abundance fitness values under -0.06, and MET for everything at or above.

| VARIANT DESCRIPTION | CLASS |
| --- | --- |
| F78Y | MET |
| M13Y | MET |
| P21Q | MET |

Then there is this variant:
Query: Kindly determine if abundance fitness recorded for S72E is above or exactly -0.06.
Response: MET
